Target: T1, Rb^P I703F (human, UniProt P06400 380-788, I703F)
T1 sequence: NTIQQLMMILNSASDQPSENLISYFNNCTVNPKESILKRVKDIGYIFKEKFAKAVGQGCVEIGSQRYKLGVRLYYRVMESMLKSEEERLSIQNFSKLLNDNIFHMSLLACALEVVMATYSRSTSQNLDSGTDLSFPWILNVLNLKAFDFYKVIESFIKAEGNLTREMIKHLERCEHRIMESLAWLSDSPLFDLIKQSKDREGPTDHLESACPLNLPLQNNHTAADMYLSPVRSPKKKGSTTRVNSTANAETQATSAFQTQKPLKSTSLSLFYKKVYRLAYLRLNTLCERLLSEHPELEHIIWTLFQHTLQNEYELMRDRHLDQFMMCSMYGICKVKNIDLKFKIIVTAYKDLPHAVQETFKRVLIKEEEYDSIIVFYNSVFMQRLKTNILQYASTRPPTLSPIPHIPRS
Test: fluorescence polarisation
property_label: pKd
Please express pKd as -log10 of the molar concentration.

Q. Which pKd is reported for this binder? DLYCYEQLN (not fully specified; TMR fluorescent label (TMR-E7^LxCxE)) [TMR-E7^LxCxE (LxCxE peptide of the E7 oncoprotein from HPV, TMR-labeled)]
A. 7.28
